Sequence of the target: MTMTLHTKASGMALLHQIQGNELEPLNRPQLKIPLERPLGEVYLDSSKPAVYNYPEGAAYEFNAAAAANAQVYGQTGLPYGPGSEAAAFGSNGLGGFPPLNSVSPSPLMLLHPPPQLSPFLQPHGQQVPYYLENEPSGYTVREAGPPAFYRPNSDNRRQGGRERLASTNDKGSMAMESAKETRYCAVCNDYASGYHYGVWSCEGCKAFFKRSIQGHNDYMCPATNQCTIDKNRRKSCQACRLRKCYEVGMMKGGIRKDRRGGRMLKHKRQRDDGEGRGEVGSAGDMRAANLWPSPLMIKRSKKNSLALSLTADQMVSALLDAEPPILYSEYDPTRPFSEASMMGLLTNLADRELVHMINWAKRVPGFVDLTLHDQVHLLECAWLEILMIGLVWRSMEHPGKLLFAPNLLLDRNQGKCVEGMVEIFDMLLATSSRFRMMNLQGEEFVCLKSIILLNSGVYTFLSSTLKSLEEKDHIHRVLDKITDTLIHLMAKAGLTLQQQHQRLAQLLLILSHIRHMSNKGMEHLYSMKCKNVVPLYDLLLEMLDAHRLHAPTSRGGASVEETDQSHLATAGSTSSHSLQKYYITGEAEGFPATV
What IC50 was measured for each of the following?

Answered examples (2):
compound: COc1ccc(C2=C(c3ccc(OC)cc3)C[C@H]3[C@H](CC[C@H]3O)C2)cc1 [Compound 57]
IC50: > 10 µM
--
compound: c1ccc(C2=C(c3ccccc3)CC3COCC3C2)cc1 (stereo not drawn) [Compound 52]
IC50: > 10 µM

Switching to the query record.
Measured IC50, OC[C@@H]1CC(c2ccccc2)=C(c2ccccc2)C[C@@H]1CO [Compound 18] : > 10 µM

The values you see were collected from patent US7183445B2.
